Test system: PPARg:RXRa (NR concentration 180 nM, RXRa partner concentration 90 nM)
Experiment: PBM binding z-score (relative to random genomic background probes); higher = stronger binding; sequences stand for … in GC…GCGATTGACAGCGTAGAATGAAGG
# cutoff 2 applies to PBM binding z-score; >= gives met, < gives not met

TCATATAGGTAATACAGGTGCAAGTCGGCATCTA
not met
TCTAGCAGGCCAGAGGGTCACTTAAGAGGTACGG
not met
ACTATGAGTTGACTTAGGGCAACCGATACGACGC
not met
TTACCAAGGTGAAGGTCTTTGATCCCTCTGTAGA
not met
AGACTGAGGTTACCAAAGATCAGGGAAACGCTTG
not met
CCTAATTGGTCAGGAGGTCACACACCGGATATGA
met

## Task Record `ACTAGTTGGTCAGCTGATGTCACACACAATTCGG` ; criterion: PBM binding z-score no lower than 2. Met?
## Result not met

## Task Assess whether reported PBM binding z-score for `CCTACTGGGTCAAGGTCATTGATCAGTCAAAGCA` sits at 2 or higher.
## Result met

## Task Is PBM binding z-score at least 2? Consider `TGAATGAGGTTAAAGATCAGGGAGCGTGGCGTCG`
## Result met

## Task Decide: PBM binding z-score of `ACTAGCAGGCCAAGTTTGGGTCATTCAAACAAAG` >= 2?
## Result not met

## Task Hi, just wondering whether `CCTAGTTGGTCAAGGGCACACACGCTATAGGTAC` shows PBM binding z-score of 2 or higher.
## Result not met

## Task Determine whether this sequence has PBM binding z-score no lower than 2: `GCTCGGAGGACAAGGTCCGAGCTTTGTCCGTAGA`
## Result not met

## Task Can `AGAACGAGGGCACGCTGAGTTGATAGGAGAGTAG` be said to have PBM binding z-score at or above 2?
## Result met

## Task Could you tell me if the measured PBM binding z-score of `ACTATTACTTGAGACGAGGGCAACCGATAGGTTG` reaches 2 or more?
## Result not met

## Task Entry `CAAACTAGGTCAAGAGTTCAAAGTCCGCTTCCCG` : is its PBM binding z-score no less than 2?
## Result met

## Task Answer whether PBM binding z-score of `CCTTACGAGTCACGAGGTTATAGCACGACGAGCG` is greater than or equal to 2.
## Result not met

## Task Is the recorded value of PBM binding z-score equal to or greater than 2 for this sequence? `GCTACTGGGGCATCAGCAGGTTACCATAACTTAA`
## Result met

## Task Hi team, for `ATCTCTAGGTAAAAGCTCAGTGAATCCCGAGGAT` , is the recorded PBM binding z-score at or above 2?
## Result not met

## Task # check: PBM binding z-score of `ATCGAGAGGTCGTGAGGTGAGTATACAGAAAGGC` is greater than or equal to 2
## Result met

## Task Please tell me: is the sequence `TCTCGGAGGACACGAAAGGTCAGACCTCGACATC` at or over 2 in terms of PBM binding z-score?
## Result not met

## Task Does the sequence `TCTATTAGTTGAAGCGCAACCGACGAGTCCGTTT` have recorded PBM binding z-score that is 2 or more?
## Result not met

## Task PBM binding z-score >= 2 for `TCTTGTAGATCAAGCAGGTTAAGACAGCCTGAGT` ?
## Result not met

## Task Could you verify whether the entry `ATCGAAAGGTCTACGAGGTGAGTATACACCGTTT` shows PBM binding z-score of no less than 2?
## Result not met

## Task Has `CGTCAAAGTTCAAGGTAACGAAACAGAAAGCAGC` a recorded PBM binding z-score greater than or equal to 2?
## Result met

## Task Check if PBM binding z-score >= 2 (inclusive). Item: `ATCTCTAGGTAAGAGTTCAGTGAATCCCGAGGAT`
## Result met

## Task Does the reported PBM binding z-score for `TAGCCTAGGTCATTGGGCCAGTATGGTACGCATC` fall at or above the 2 mark?
## Result met
